Just for reference, patent US20230263822A1 is where these values come from.

Assay: Body and organ weights of cynomolgus monkeys (Example 46)
Assay type: in vivo
Set-up: unit not given here
Conditions: day 55, after euthanasia
Strand notation (5' to 3'): a small letter for the sugar, then the base; units joined by * are phosphorothioate-linked, units joined directly phosphodiester-linked; [ ] holds rarer units or linkages, { } end groups; capitals alone tell only the bases. e = 2'-O-(2-methoxyethyl) (MOE); [5mC] = 5-methylcytosine; d = 2'-deoxy (DNA)
readout_name: Kidney weight
Numbers only.

For every listed record, write down its Kidney weight.
1. ISIS 449711: 3-8-3, 4-8-4, 2-10-2, 3-10-3 or 4-10-4 MOE microwalk gapmer (Table 46) (antisense eA*e[5mC]*dA*dG*dT*dT*dT*d[5mC]*dT*dG*dG*d[5mC]*eA*eG)
2. ISIS 445522: 5-8-5 or 6-8-6 MOE microwalk gapmer (Table 44) (antisense eG*e[5mC]*eA*e[5mC]*eA*dG*dT*dT*dT*d[5mC]*dT*dG*dG*e[5mC]*eA*eG*eG*e[5mC])
3. ISIS 416850: MOE gapmer, nucleobases 1275 to 1318 of SEQ ID NO: 1 (Table 8) (antisense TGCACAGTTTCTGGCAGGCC; MOE gapmer, wing and gap sizes not given here)
4. ISIS 449709: 3-8-3, 4-8-4, 2-10-2, 3-10-3 or 4-10-4 MOE microwalk gapmer (Table 46) (antisense eG*e[5mC]*eA*e[5mC]*dA*dG*dT*dT*dT*d[5mC]*dT*dG*dG*d[5mC]*eA*eG*eG*e[5mC])
5. ISIS 449708: 3-8-3, 4-8-4, 2-10-2, 3-10-3 or 4-10-4 MOE microwalk gapmer (Table 46) (antisense eA*e[5mC]*eA*dG*dT*dT*dT*d[5mC]*dT*dG*dG*e[5mC]*eA*eG)
6. ISIS 449710: 3-8-3, 4-8-4, 2-10-2, 3-10-3 or 4-10-4 MOE microwalk gapmer (Table 46) (antisense e[5mC]*eA*e[5mC]*dA*dG*dT*dT*dT*d[5mC]*dT*dG*dG*d[5mC]*eA*eG*eG)
7. ISIS 445531: 5-8-5 or 6-8-6 MOE microwalk gapmer (Table 44) (antisense eG*eG*e[5mC]*eA*eT*dT*dG*dG*dT*dG*d[5mC]*dA*d[5mC]*eA*eG*eT*eT*eT)

Reply text:
1. 0.54
2. 0.55
3. 0.51
4. 0.57
5. 0.60
6. 0.58
7. 0.49

I need Kidney weight for every entry listed below, if you could help.
1. ISIS 416858: MOE gapmer, nucleobases 1275 to 1318 of SEQ ID NO: 1 (Table 8) (antisense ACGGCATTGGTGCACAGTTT; MOE gapmer, wing and gap sizes not given here)
2. ISIS 449707: 3-8-3, 4-8-4, 2-10-2, 3-10-3 or 4-10-4 MOE microwalk gapmer (Table 46) (antisense e[5mC]*eA*e[5mC]*eA*dG*dT*dT*dT*d[5mC]*dT*dG*dG*e[5mC]*eA*eG*eG)

Reply text:
1: 0.47; 2: 0.53
